Below: a set of entries, each annotated with reported tissue uptake at 2 min.
# measurement description: Biodistribution of 67Ga-radiolabeled peptides
# Set-up: species or system mouse
# condition: female, CD1, mouse, in vivo, iv, 100 uCi, total radioactivity, Tissue distribution, Bone
Residues, ends and D or L forms follow the SMILES beside them. *: point of attachment. NODAGA = O=C(O)CN1CCN(CC(=O)O)CCN(C(CCC(=O)*)C(=O)O)CC1
Field: numeric (%ID/g). Do not append units.

compound | tissue uptake at 2 min, %ID/g
CC[C@H](C)[C@H](NC(=O)[C@H](C)NC(=O)CNC(=O)[C@H](CCCCN)NC(=O)[C@H](Cc1ccc(O)cc1)NC(=O)[C@H](CCCCN)NC(=O)CCC(C(=O)O)N1CCN(CC(=O)O)CCN(CC(=O)O)CC1)C(=O)N[C@H](C(=O)NCC(=O)N[C@@H](CC(N)=O)C(=O)N[C@H](C(=O)N[C@@H](CCCCN)C(N)=O)[C@@H](C)CC)[C@@H](C)CC (stereo partly shown) [67Ga-BBBpS_1, metal not drawn] ({NODAGA}-KYKGAIIGNIK-NH2) | 3.4
CC[C@H](C)[C@H](NC(=O)[C@H](C)NC(=O)CNC(=O)[C@H](CO)NC(=O)[C@H](CCCNC(=N)N)NC(=O)[C@H](Cc1ccc(O)cc1)NC(=O)[C@H](CCCCN)NC(=O)CCC(C(=O)O)N1CCN(CC(=O)O)CCN(CC(=O)O)CC1)C(=O)N[C@H](C(=O)N[C@H](C(=O)NCC(=O)N[C@@H](Cc1ccc(O)cc1)C(N)=O)[C@@H](C)CC)[C@@H](C)O (stereo partly shown) [67Ga-BBBpS_2, metal not drawn] ({NODAGA}-KYRSGAITIGY-NH2) | 3.1
CC(C)C[C@H](NC(=O)[C@H](Cc1c[nH]c2ccccc12)NC(=O)[C@H](Cc1ccccc1)NC(=O)[C@H](CCC(N)=O)NC(=O)[C@H](C)NC(=O)[C@H](CO)NC(=O)[C@H](CC(=O)O)NC(=O)[C@@H]1CCCN1C(=O)[C@H](CCCNC(=N)N)NC(=O)[C@H](CC(N)=O)NC(=O)CCC(C(=O)O)N1CCN(CC(=O)O)CCN(CC(=O)O)CC1)C(=O)N[C@@H](Cc1c[nH]cn1)C(=O)N[C@@H](Cc1c[nH]cn1)C(N)=O (stereo partly shown) [67Ga-BBBpS_9, metal not drawn] ({NODAGA}-NRPDSAQFWLHH-NH2) | 3.4

Which tissue uptake at 2 min value belongs to CC[C@H](C)[C@H](NC(=O)[C@H](Cc1c[nH]cn1)NC(=O)CCC(C(=O)O)N1CCN(CC(=O)O)CCN(CC(=O)O)CC1)C(=O)N[C@@H](CCC(N)=O)C(=O)N[C@@H](CC(C)C)C(=O)N[C@@H](CO)C(=O)N1CCC[C@H]1C(=O)N[C@@H](Cc1ccccc1)C(=O)N[C@@H](CO)C(=O)N[C@@H](CCC(N)=O)C(=O)N[C@@H](CO)C(=O)N[C@@H](Cc1c[nH]c2ccccc12)C(=O)N[C@@H](CCCNC(=N)N)C(N)=O (stereo partly shown) [67Ga-BBBpS_5, metal not drawn] ({NODAGA}-HIQLSPFSQSWR-NH2) ?
3.8

---

Below: a set of entries, each annotated with reported tissue uptake at 2 min.
# measurement description: Biodistribution of 67Ga-radiolabeled peptides
# Design: species or system mouse
# condition: female, CD1, mouse, in vivo, iv, 100 uCi, total radioactivity, Tissue distribution, Lung
Residues, ends and D or L forms follow the SMILES beside them. *: point of attachment. NODAGA = O=C(O)CN1CCN(CC(=O)O)CCN(C(CCC(=O)*)C(=O)O)CC1
Field: numeric (%ID/g). Do not append units.

molecule | result value
CC[C@H](C)[C@H](NC(=O)[C@H](C)NC(=O)CNC(=O)[C@H](CCCCN)NC(=O)[C@H](Cc1ccc(O)cc1)NC(=O)[C@H](CCCCN)NC(=O)CCC(C(=O)O)N1CCN(CC(=O)O)CCN(CC(=O)O)CC1)C(=O)N[C@H](C(=O)NCC(=O)N[C@@H](CC(N)=O)C(=O)N[C@H](C(=O)N[C@@H](CCCCN)C(N)=O)[C@@H](C)CC)[C@@H](C)CC (stereo partly drawn) [67Ga-BBBpS_1, metal not drawn] ({NODAGA}-KYKGAIIGNIK-NH2) | 6.1
CC[C@H](C)[C@H](NC(=O)[C@H](C)NC(=O)CNC(=O)[C@H](CO)NC(=O)[C@H](CCCNC(=N)N)NC(=O)[C@H](Cc1ccc(O)cc1)NC(=O)[C@H](CCCCN)NC(=O)CCC(C(=O)O)N1CCN(CC(=O)O)CCN(CC(=O)O)CC1)C(=O)N[C@H](C(=O)N[C@H](C(=O)NCC(=O)N[C@@H](Cc1ccc(O)cc1)C(N)=O)[C@@H](C)CC)[C@@H](C)O (stereo partly drawn) [67Ga-BBBpS_2, metal not drawn] ({NODAGA}-KYRSGAITIGY-NH2) | 6

Which tissue uptake at 2 min value belongs to CC[C@H](C)[C@H](NC(=O)[C@H](Cc1c[nH]cn1)NC(=O)CCC(C(=O)O)N1CCN(CC(=O)O)CCN(CC(=O)O)CC1)C(=O)N[C@@H](CCC(N)=O)C(=O)N[C@@H](CC(C)C)C(=O)N[C@@H](CO)C(=O)N1CCC[C@H]1C(=O)N[C@@H](Cc1ccccc1)C(=O)N[C@@H](CO)C(=O)N[C@@H](CCC(N)=O)C(=O)N[C@@H](CO)C(=O)N[C@@H](Cc1c[nH]c2ccccc12)C(=O)N[C@@H](CCCNC(=N)N)C(N)=O (stereo partly drawn) [67Ga-BBBpS_5, metal not drawn] ({NODAGA}-HIQLSPFSQSWR-NH2) ?
7.8
